The reported numbers originate from the Deep4Chem optical property database.

assay_explanation: solvent given as SMILES
test_conditions: in Cc1ccccc1
readout_label: log10 of fluorescence lifetime (log10 of the value in ns)
Scale type: logarithmic (base 10). Underlying fluorescence lifetime unit: ns.

CC1=CC(C)=[N+]2C1=C(c1ccccc1)c1c(C)c(-c3cccs3)c(C)n1[B-]2(F)F; 0.51
O=S(=O)(c1ccc(N(c2ccccc2)c2ccccc2)cc1)c1ccc(N(c2ccccc2)c2ccccc2)cc1; 0.34
COc1ccc2c(c1)sc1[n+]2[B-](F)(F)OC(c2ccc(N(C)C)cc2)=N1; 0.20
Cc1ccc(C2=C3C=CC(c4ccccc4)=[N+]3[B-](F)(F)n3c2ccc3-c2ccccc2)cc1; 0.34
CCCCCCCCN(CCCCCCCC)c1ccc(/C=C/c2ccc(C#Cc3ccc(-c4ccc(C#Cc5ccc(/C=C/c6ccc(N(CCCCCCCC)CCCCCCCC)cc6)cc5)cc4)cc3)cc2)cc1; -0.40
N#Cc1c(-n2c3ccccc3c3ccccc32)c(C#N)c(-n2c3ccccc3c3ccccc32)c(-n2c3ccccc3c3ccccc32)c1-n1c2ccccc2c2ccccc21; 1.25
C(=C\c1cccc2ccccc12)/c1ccc(-c2nnc(-c3ccc(-c4cc5ccccc5s4)cc3)o2)cc1; -0.01
CN(C)c1ccc(-c2nc3c(c4c2-c2ccc(C#N)cc2CC4)-c2ccc(C#N)cc2CC3)cc1; 0.15
CC(C)c1cccc(C(C)C)c1N1C(=O)c2cc(Cl)c3c4c(Cl)cc5c6c(cc(Cl)c(c7c(Cl)cc(c2c37)C1=O)c64)C(=O)N(c1c(C(C)C)cccc1C(C)C)C5=O; 0.71
COC(=O)c1ccc(C2=C3C=CC(C)=[N+]3[B-](F)(F)n3c(C)ccc32)cc1; -0.09

Please report log10 of fluorescence lifetime for every entry that follows.
1. CCCCCCCCN1c2ccccc2Sc2cc(/C=C/c3ccc(N(c4ccc(/C=C/c5ccc6c(c5)Sc5ccccc5N6CCCCCCCC)cc4)c4ccc(/C=C/c5ccc(/C=C/c6ccc(N(c7ccc(/C=C/c8ccc(N(c9ccccc9)c9ccccc9)cc8)cc7)c7ccc(/C=C/c8ccc(N(c9ccccc9)c9ccccc9)cc8)cc7)cc6)c6nsnc56)cc4)cc3)ccc21
2. N#Cc1ccc2c(c1)CCc1nc(-c3ccc([N+](=O)[O-])cc3)c3c(c1-2)CCc1cc(C#N)ccc1-3
3. COc1ccc(C2=C3C=CC(C)=[N+]3[B-](F)(F)n3c(C)ccc32)cc1
4. Cc1ccc(C2=C3C=CC(C#Cc4ccccc4)=[N+]3[B-](F)(F)n3c(Cl)ccc32)cc1

[0.54, -0.06, 0.53, 0.65]

----------
assay_explanation: solvent given as SMILES
test_conditions: in CCCO
readout_label: fluorescence lifetime

Some compounds with recorded fluorescence lifetime:
CCOC(=O)c1ccc2c(c1)[nH]c1c3ccc(C(=O)OCC)cc3[se]c21; 0.15 ns
COc1ccc(C#Cc2ccc(C#N)cc2)cc1; 0.6 ns
Cn1c2ccccc2c2c1c1ccccc1n2C; 9 ns
CN(C)c1ccc(/C=C2\CC/C(=C\c3ccc(C#N)cc3)C2=O)cc1; 0.18 ns
CCC1=C(C)C2=C(C)c3c(C)c(CC)c(C)n3[B-](F)(F)[N+]2=C1C; 6.01 ns

Record fluorescence lifetime for all entries; do not skip any.
1. CCCCCCn1c2cc(C(=O)OCC)ccc2c2c1c1ccc(C(=O)OCC)cc1n2CCCCCC
2. c1ccc(-c2cc(-c3ccc4ccc5c(-c6ccnc(-c7ccccn7)c6)ccc6ccc3c4c65)ccn2)nc1
3. CC1(C)Nc2cc(Cl)ccc2-c2[nH]c3ccccc3c(=O)c21
4. CCOC(=O)c1ccc2c(c1)[nH]c1c3ccc(C(=O)OCC)cc3sc21
5. CN(C)c1ccc(/C=C/C=C2\CC/C(=C\C=C\c3ccc(N(C)C)cc3)C2=O)cc1

1: 6.3 ns; 2: 2.1 ns; 3: 9.2 ns; 4: 2.6 ns; 5: 0.19 ns
